- test_target: Cytochrome P450 3A4 (Homo sapiens)
- Sequence (P08684 whole entry): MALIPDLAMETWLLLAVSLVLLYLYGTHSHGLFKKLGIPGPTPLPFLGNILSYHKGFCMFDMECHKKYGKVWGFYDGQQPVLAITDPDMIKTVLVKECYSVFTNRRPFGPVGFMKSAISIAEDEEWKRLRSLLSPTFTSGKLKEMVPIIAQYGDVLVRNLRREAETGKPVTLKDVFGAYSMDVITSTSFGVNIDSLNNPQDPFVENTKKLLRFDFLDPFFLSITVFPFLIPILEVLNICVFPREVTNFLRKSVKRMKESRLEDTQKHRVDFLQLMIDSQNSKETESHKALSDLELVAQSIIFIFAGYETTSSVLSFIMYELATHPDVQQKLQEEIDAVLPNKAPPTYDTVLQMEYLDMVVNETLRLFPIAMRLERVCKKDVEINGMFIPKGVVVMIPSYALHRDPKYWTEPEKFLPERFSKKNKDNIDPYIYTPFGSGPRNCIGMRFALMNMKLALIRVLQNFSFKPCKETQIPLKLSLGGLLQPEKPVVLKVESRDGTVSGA
- assay_details: Inhibition of CYP3A4 (unknown origin)
- Type: ADME
metric_name: IC (µM)

These solved cases illustrate the format of a correct answer.
1. N[C@@H](c1ccc(-n2cc(-c3ccc4cc[nH]c4c3)c(C(F)(F)F)n2)cc1)C(F)(F)F	17
2. CN(C)Cc1ccc(-n2cc(-c3ccc4cc[nH]c4c3)c3c(Cl)ccnc32)cc1	17

[1] FC(F)(F)c1nn(-c2ccc(Cc3nc[nH]n3)cc2)cc1-c1ccc2cc[nH]c2c1
[2] NCc1ccc(-n2cc(-c3ccc4cc[nH]c4c3)c(C(F)(F)F)n2)cc1
[3] N[C@@H]1CC[C@@H](n2cc(-c3ccc4cc[nH]c4c3)c(C(F)(F)F)n2)C1
// query Put the entries in order of IC, starting with the largest number. Your answer should be the labels, listed in the requested order.
// result 3, 1, 2
(3: 34 µM, 1: 6.9 µM, 2: 3.8 µM)
